Test: Human HepG2 cell viability assay in 384 well format
Assay type: toxicity, cell-based
Parameters: dose 125 nL, time 70.5 hour; concentration not given beside the values
Conditions: HepG2 cells, read-out: Inhibition

compound	unitAbbrev	cytotoxicity at 70.5 h
Cc1ccc2c(n1)N(CC1CC1)CCN(Cc1cnn(C)c1)C2	%	30.4
CCc1[nH]c2c(CNc3nccc(N)n3)cc(C)cc2c1C	%	23.9
Cc1cc(C)c(CCNC(=O)NCCCC(N)=O)c(C)c1	%	-1.98
C=C1C(C)(C)[C@H]2CC[C@]1(C(=O)N1CCC(Cn3cc(CO)nn3)CC1)C2	%	26.1
Cc1ncc(CN(C)C(=O)c2ccc(N3CCOCC3)c(F)c2)s1	%	-6.71
Cc1ccc(NC(=O)N2CCOC(C(N)=O)C2)cc1C(F)(F)F (configuration not stated)	%	-4.03
Cc1nc(NC2CCOCC2)cc(C2CCN2S(C)(=O)=O)n1 (configuration not stated)	%	-6.12
CC(C)Cc1noc(CN2CCCC2c2noc(C3CC3)n2)n1 (configuration not stated)	%	-10.4
CN(C)c1cc(CNC(=O)c2ccccc2Cl)ccn1	%	1.6
CN(CCc1ccncc1)C(=O)c1sccc1OC(F)F	%	-10.6
CCS(=O)(=O)N1CCC2(COCc3cnc(N4CCOCC4)nc32)C1 (configuration not stated)	%	-6.84
O=C(N1CCCC1)N1CCC2(CC1)C(=O)N(CC1CC1)c1ccccc12	%	-20.3
COCCNC(=O)[C@H]1CN(Cc2cccs2)C[C@H]2OCC[C@@H]12	%	25.4
Cc1cc(N2CCC(C(=O)N(C)C)CC2)nc(-c2ccncc2)n1	%	3.79
CCOCCn1c(=O)n(CCC(C)C)c2ncc(C(=O)O)cc21	%	1.96
O=C(CO)N1CCCC2(CCC(=O)N(CC3CC3)C2)C1 (configuration not stated)	%	-11
O=C(c1ccccn1)N1CCc2ncnc(-c3ccncc3)c2CC1	%	-0.573
CC(C)OCc1nn(C)c2c1CN(Cc1cccs1)CC2	%	-2.74
Cc1cc(CNCC2(O)CCOCC2)ccc1F	%	-0.741
COCCOc1ccc(NC(=O)C2CCC2)cn1	%	-7.54
c1cnc(N2CCOCC3(CCCN(Cc4cccs4)C3)C2)nc1 (configuration not stated)	%	19.9
O=S(=O)(c1ccc(F)cc1)N1CCCC1c1cc[nH]n1 (configuration not stated)	%	-7.22
CN(C)CC1CN(c2ncnc3[nH]ccc23)CCO1 (configuration not stated)	%	5.61
c1csc(CN2CCCn3cnc(COCC4CC4)c3C2)c1	%	0.853
c1nc(CCC2CCCCN2)cc(N2CCCC2)n1 (configuration not stated)	%	1.23
Cc1nccn1CCN(C)c1nc(-c2ccc(Cl)cc2)nc2c1CNC2	%	-3.99
CN1CC(=O)N(c2ccsc2)CC12CCN(C(=O)c1ccc[nH]1)C2 (configuration not stated)	%	8.85
Cc1ccc(NC2CCN(C(=O)CCn3nc(C)cc3C)CC2)nn1	%	-14.3
O=C(CCc1ccsc1)N1CCCC(n2cncn2)C1 (configuration not stated)	%	-11.8
CC(=O)N1N=C(c2ccccc2)OC1C(=O)NCCN(C(C)C)C(C)C (configuration not stated)	%	-6.17
COc1cc(Cl)ccc1CNC(=O)N1CCC(n2cncn2)CC1	%	0.114
Cc1cnn(C2CCCN(C(=O)c3ccc(-n4ccnc4)cc3)C2)c1 (configuration not stated)	%	-17.4
CCc1oc(C(=O)N2CCC(N(CC)C(C)=O)C2)cc1CN(CC)CC (configuration not stated)	%	-12.3
COc1cc(N2CC[C@@H](O)[C@@H]2Cc2cccnc2)ncn1	%	-8.63
COc1nsc2nc(C3CCCN3C(C)=O)ccc12 (configuration not stated)	%	-3.15
C[C@@H]1CN(C(=O)CCCN2CCCC2)CC[C@@]1(O)C1CCOCC1	%	-3.8
CC(C)CCNC(=O)CNC(=O)N1CCc2c([nH]c3ccc(Cl)cc23)C1	%	-19.7
O=C(NC[C@H]1C[C@@H]2CCN1C[C@@H]2CN1CCCC1)c1ccco1	%	-4.55
CC(CCc1ccco1)NC(=O)Nc1cc(C(F)(F)F)c[nH]c1=O (configuration not stated)	%	0.203
CCN(C)S(=O)(=O)N1CCC(C(O)c2ccc(Cl)cc2)CC1 (configuration not stated)	%	-8.06
Cc1nn(CC(C)C)c(N(C)C)c1CNCc1ccc2c(c1)OCO2	%	-2.13
Cc1cc2n(n1)CC(CNC1CCN(c3ccccn3)CC1)CN2 (configuration not stated)	%	-0.0737
O=C(c1ccncc1)N1CCC2(CC1)CCN(Cc1ccccn1)C2=O	%	15.2
COCC(=O)N1CCc2c(CNS(C)(=O)=O)n[nH]c2C1	%	-5.36
Cn1nccc1CCC(=O)NC1CCCN(c2ccccn2)C1 (configuration not stated)	%	-1.31
COCCN1CCC2(CC1)CC(COC)N(c1ncccn1)C2 (configuration not stated)	%	-9.91
CCNc1cc2c(nn1)CCN(C(=O)c1cc3ccccc3[nH]c1=O)C2	%	-12.3
